protocolText: small-molecule binders of probe aLefty1, primary screen, biochemical, small-molecule microarray, 635/667 nm fluorescence (AID 1153);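 note: score merges spot fluorescence with signal-to-noise ratio from the scanned slide images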
conditionParameters: higher = more signal
composite z-score of 0.09 or higher: rule met. Under 0.09: rule not met.

**Q:** Has `COCCOC(=O)N1C(=O)[C@@]2(c3cc(C#CCC(C(=O)OC)C(=O)OC)ccc31)[C@H](c1ccc(O)cc1)N1[C@H](c3ccccc3)[C@H](c3ccccc3)OC(=O)[C@H]1[C@@H]2C(=O)N1CCc2cc(OC)c(OC)cc2C1` a recorded composite z-score greater than or equal to 0.09?
**A:** rule not met

**Q:** Has `COc1ccc(CCNC(=O)[C@@H]2c3ccccc3C(=O)N(Cc3cc(F)cc(C(F)(F)F)c3)[C@H]2c2ccc(CO)cc2)cc1` a recorded composite z-score greater than or equal to 0.09?
**A:** rule met

**Q:** Has `COC(=O)C(CC#Cc1ccc2c(c1)[C@]1(C(=O)N2)[C@H](c2ccc(OCCO)cc2)N2[C@H](c3ccccc3)[C@H](c3ccccc3)OC(=O)[C@H]2[C@@H]1C(N)=O)C(=O)OC` a recorded composite z-score greater than or equal to 0.09?
**A:** rule not met

**Q:** Has `COCCOC(=O)N1C(=O)[C@@]2(c3cc(C#CC4=CCCCC4)ccc31)[C@H](C(=O)N1CCCCCCC1)[C@H]1C(=O)O[C@H](c3ccccc3)[C@H](c3ccccc3)N1[C@@H]2c1ccccc1OCCO` a recorded composite z-score greater than or equal to 0.09?
**A:** rule met

**Q:** Has `COCCCNC(=O)[C@@]1(Cc2ccccc2I)c2ccccc2C(=O)N(C2CCCCC2)[C@H]1c1ccc(CO)cc1` a recorded composite z-score greater than or equal to 0.09?
**A:** rule met
